# log10 MIC per entry
# System: Pseudomonas aeruginosa
# method.description: Antimicrobial activity against Pseudomonas aeruginosa PAO1 KTL harboring oprD gene after 18 hrs by agar dilution method
# Type: functional
Values are log10 of MIC in µg/mL.

Examples with answers:
C[C@@H](O)[C@H]1C(=O)N2C(C(=O)O)=C(S[C@@H]3CN[C@H](CNS(N)(=O)=O)C3)[C@H](C)[C@H]12 :: -0.10
C[C@@H](O)[C@H]1C(=O)N2C(C(=O)O)=C(SCCNC=N)C[C@H]12 [IMIPENEM ANHYDROUS] :: 1.10
CC(C)(O/N=C(\C(=O)N[C@@H]1C(=O)N2C(C(=O)[O-])=C(C[n+]3ccccc3)CS[C@H]12)c1csc(N)n1)C(=O)O :: 0.20
CCN1CCN(C(=O)N[C@@H](C(=O)N[C@@H]2C(=O)N3[C@@H]2SC(C)(C)[C@@H]3C(=O)O)c2ccccc2)C(=O)C1=O :: 0.49
O=C(O)c1cn(C2CC2)c2cc(N3CCNCC3)c(F)cc2c1=O :: -0.70
C[C@@H](O)[C@H]1C(=O)N2C(C(=O)O)=C(S[C@@H]3CN[C@H](C(=O)N(C)C)C3)[C@H](C)[C@H]12 :: 0.20

Alright, here's another molecule for you.
Provide log10 MIC, recorded with Pseudomonas aeruginosa, of CC1COc2c(N3CCN(C)CC3)c(F)cc3c(=O)c(C(=O)O)cn1c23 (configuration not stated)
-0.10

###

# System: Pseudomonas aeruginosa
# method.description: Antimicrobial activity against Pseudomonas aeruginosa PAO1 IPM46 harboring oprD gene after 18 hrs by agar dilution method
# Type: functional
# reported.conditions: PAO1 IPM46, 18 h
# MIC per entry
# number only, unit mg/L dropped from output

CC(C)(O/N=C(\C(=O)N[C@@H]1C(=O)N2C(C(=O)[O-])=C(C[n+]3ccccc3)CS[C@H]12)c1csc(N)n1)C(=O)O [CEFTAZIDIME] :: 1.6
C[C@@H](O)[C@H]1C(=O)N2C(C(=O)O)=C(S[C@@H]3CN[C@H](C(=O)N(C)C)C3)[C@H](C)[C@H]12 [MEROPENEM] :: 1.6
CCN1CCN(C(=O)N[C@@H](C(=O)N[C@@H]2C(=O)N3[C@@H]2SC(C)(C)[C@@H]3C(=O)O)c2ccccc2)C(=O)C1=O [PIPERACILLIN] :: 3.1
C[C@@H](O)[C@H]1C(=O)N2C(C(=O)O)=C(SCCNC=N)C[C@H]12 [IMIPENEM ANHYDROUS] :: 12.5
CC1COc2c(N3CCN(C)CC3)c(F)cc3c(=O)c(C(=O)O)cn1c23 (configuration not stated) [OFLOXACIN] :: 0.8

Provide MIC, recorded with Pseudomonas aeruginosa, of O=C(O)c1cn(C2CC2)c2cc(N3CCNCC3)c(F)cc2c1=O [CIPROFLOXACIN]
0.2

Provide MIC, recorded with Pseudomonas aeruginosa, of C[C@@H](O)[C@H]1C(=O)N2C(C(=O)O)=C(S[C@@H]3CN[C@H](CNS(N)(=O)=O)C3)[C@H](C)[C@H]12 [DORIPENEM]
0.8
